- Measurement Target: HIV-1 envelope glycoprotein (gp120) of virus VS001 (HIV-1)
- Assay Procedure: cell-based or functional assay
Listed here are binders together with their documented Neutralization IC50.
Number in µg/mL, nothing else.

Field: example entries. Status: answers known.
3.1.18-1 (antibody, human IgG1, kappa, V domains shown) VH: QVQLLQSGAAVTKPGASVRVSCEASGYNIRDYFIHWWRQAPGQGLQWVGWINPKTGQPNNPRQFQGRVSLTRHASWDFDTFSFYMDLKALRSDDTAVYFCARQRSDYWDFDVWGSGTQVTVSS VL: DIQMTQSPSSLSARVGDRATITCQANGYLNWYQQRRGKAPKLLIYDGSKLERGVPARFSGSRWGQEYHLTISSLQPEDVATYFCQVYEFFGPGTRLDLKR    3.52
2.2.17-1 (antibody, human IgG1, kappa, V domains shown) VH: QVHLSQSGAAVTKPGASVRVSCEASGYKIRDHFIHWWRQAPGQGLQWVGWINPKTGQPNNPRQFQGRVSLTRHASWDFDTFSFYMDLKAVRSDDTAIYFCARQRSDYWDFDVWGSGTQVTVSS VL: DIQMTQSPSSLSARVGDTATITCQANGYLNWYQQRRGKAPKLLIYDGSKLERGVPARFSGRRWGQEYHLTINNLQPEDVATYFCQVYEFFGPGTRLDLKR    4.38
1.1.104-1 (antibody, human IgG1, kappa, V domains shown) VH: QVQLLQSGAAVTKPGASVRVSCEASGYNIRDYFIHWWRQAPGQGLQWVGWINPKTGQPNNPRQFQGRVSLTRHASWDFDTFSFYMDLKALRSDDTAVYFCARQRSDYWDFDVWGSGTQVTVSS VL: DIQMTQSPSSLSASVGDTATITCQANGYLNWYQQRRGKAPKLLIYDGSKLERGVPSRFSGRRWGQEYTLTINNLQPEDIATYFCQVYEFFGPGTRLDLKR    0.45
2.3.17-1 (antibody, human IgG1, kappa, V domains shown) VH: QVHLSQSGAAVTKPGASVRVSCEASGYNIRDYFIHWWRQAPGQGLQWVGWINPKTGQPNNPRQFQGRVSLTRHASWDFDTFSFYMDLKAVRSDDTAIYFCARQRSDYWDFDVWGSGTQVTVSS VL: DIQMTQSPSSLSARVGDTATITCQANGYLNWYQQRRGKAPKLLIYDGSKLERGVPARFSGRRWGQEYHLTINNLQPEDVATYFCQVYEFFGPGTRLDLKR    4.54

What does the data say about its Neutralization IC50? Entry: 1.1.78-1 (antibody, human IgG1, kappa, V domains shown) VH: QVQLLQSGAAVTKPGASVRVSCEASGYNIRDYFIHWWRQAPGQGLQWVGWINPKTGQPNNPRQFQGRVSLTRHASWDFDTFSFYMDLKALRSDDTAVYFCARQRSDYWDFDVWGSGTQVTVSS VL: DIQMTQSPSSLSASVGDTATITCQANGYLNWYQQRRGKAPKLLIYDGSKLERGVPSRFSGRRWGQEYHLTINNLQPEDIATYFCQVYEFFGPGTRLDLKR
3.3
